test system: IGROV1 ovarian; assay: NCI-60 one-dose screen, 48 h (100 = growth as untreated, 0 = no growth, -100 = all killed); conditions: 10 µM unless noted
Compounds without any hit were thinned out: in the full panel of roughly 83,000, 20% have a hit. The source made the active and inactive calls. How the source made its calls: active means growth percent below 10; inactive means the rest.
measure: growth

O=C(Nc1ccc(-n2cc(-c3ccncc3)c(-c3ccc(O)c(Cl)c3)n2)cc1)c1cc(Cl)cc(Cl)c1 :: 43.2% (inactive)
COc1cc(C(=O)N2CCN(C(=O)c3cc(OC)c(OCc4ccccc4)cc3N)CC2)c(N)cc1OCc1ccccc1 :: 106% (inactive)
COc1ccc(SC2c3ccc(O)cc3Oc3nc(N)c(C#N)c(N)c32)cc1 (stereo not drawn) :: 74.3% (inactive)
C/C(=N/O)c1ccc(NC(=O)Cn2nc(-c3ccc(Cl)cc3)nc2N)cc1 :: 89.7% (inactive)
C=CC(=O)Nc1cccc(Nc2nc(Nc3ccc(OCCOC(F)F)cc3)ncc2F)c1 :: 14% (inactive)

Count: 3. Required value per item: growth.
1. CCCCCCCC(=O)SCC/C=C/[C@@H]1CC(=O)NCc2nc(cs2)C2=N[C@@](C)(CS2)C(=O)N[C@@H](C(C)C)C(=O)N1
2. O=C(NCCNc1nccc(-c2c(-c3cccc(O)c3)nc3sccn23)n1)Nc1cc(C(F)(F)F)cc(C(F)(F)F)c1
3. O=C(N/N=C1\SCC(=O)N1c1ccccc1)c1cc(-c2cc3ccccc3o2)nn1-c1ccccc1

1. 0.908% (active)
2. 65.2% (inactive)
3. 98.9% (inactive)
